# TEST_PROTOCOL: Example I: plasma letrozole concentration (LC/MS/MS) and non-compartmental pharmacokinetics after single iv dose
# Format: in vivo, cattle
# MEASUREMENT_CONDITIONS: female, bovine, plasma, iv, 250 ug/kg, 250 μg/kg single iv, n=9; read-out: Mean residence time (MRT)
OUTCOME_MEASURE: MRT (h)

{"columns": ["COMPOUND", "OUTCOME_MEASURE", "RECORDED_RESULT"],
 "data": [
  ["N#Cc1ccc(C(c2ccc(C#N)cc2)n2cncn2)cc1", "MRT", 33.7]
]}

---

# TEST_PROTOCOL: Example I: plasma letrozole concentration (LC/MS/MS) and non-compartmental pharmacokinetics after single iv dose
# Assay type: in vivo, cattle
# MEASUREMENT_CONDITIONS: female, bovine, plasma, 125 ug/kg; 125 μg/kg single iv, n=9; read-out: Area under the curve (AUClast)

{"columns": ["COMPOUND", "AUC(0-t) / ng·h/mL"],
 "data": [
  ["N#Cc1ccc(C(c2ccc(C#N)cc2)n2cncn2)cc1 [Letrozole, letrozole]", 8800]
]}

---

# TEST_PROTOCOL: Example I: plasma letrozole concentration (LC/MS/MS) and non-compartmental pharmacokinetics after single iv dose
# Type: in vivo, cattle
# MEASUREMENT_CONDITIONS: female, bovine, plasma, 500 ug/kg; 500 μg/kg single iv, n=9; read-out: Systemic clearance (Cls) (converted)

{"columns": ["COMPOUND", "clearance (mL/min/kg)"],
 "data": [
  ["N#Cc1ccc(C(c2ccc(C#N)cc2)n2cncn2)cc1", 0.308]
]}

---

# TEST_PROTOCOL: Example I: plasma letrozole concentration (LC/MS/MS) and non-compartmental pharmacokinetics after single iv dose
# Format: in vivo, cattle
# MEASUREMENT_CONDITIONS: female, bovine, plasma, 125 ug/kg; 125 μg/kg single iv, n=9; read-out: Systemic clearance (Cls) (converted)
OUTCOME_MEASURE: clearance (mL/min/kg)

{"columns": ["MOLECULE", "UNIT_SPEC", "RECORDED_RESULT"],
 "data": [
  ["N#Cc1ccc(C(c2ccc(C#N)cc2)n2cncn2)cc1 [Letrozole, letrozole]", "mL/min/kg", 0.243]
]}

---

# TEST_PROTOCOL: Example I: plasma letrozole concentration (LC/MS/MS) and non-compartmental pharmacokinetics after single iv dose
# Type: in vivo, cattle
# MEASUREMENT_CONDITIONS: female, bovine, plasma, 250 ug/kg; 250 μg/kg single iv, n=9; read-out: Maximal concentration (Cmax)
OUTCOME_MEASURE: Cmax

{"columns": ["COMPOUND", "RECORDED_RESULT"],
 "data": [
  ["N#Cc1ccc(C(c2ccc(C#N)cc2)n2cncn2)cc1", "1700 ng/mL"]
]}

---

# TEST_PROTOCOL: Example I: plasma letrozole concentration (LC/MS/MS) and non-compartmental pharmacokinetics after single iv dose
# Type: in vivo, cattle
# MEASUREMENT_CONDITIONS: female, bovine, plasma, 125 ug/kg; 125 μg/kg single iv, n=9; read-out: Maximal concentration (Cmax)

{"columns": ["COMPOUND", "Cmax, ng/mL"],
 "data": [
  ["N#Cc1ccc(C(c2ccc(C#N)cc2)n2cncn2)cc1 [Letrozole, letrozole]", 1200]
]}

---

# TEST_PROTOCOL: Example I: plasma letrozole concentration (LC/MS/MS) and non-compartmental pharmacokinetics after single iv dose
# Assay type: in vivo, cattle
# MEASUREMENT_CONDITIONS: female, bovine, plasma, iv; doses combined; read-out: Half-life (T1/2) (converted)
OUTCOME_MEASURE: half-life (h)

{"columns": ["COMPOUND", "RECORDED_RESULT"],
 "data": [
  ["N#Cc1ccc(C(c2ccc(C#N)cc2)n2cncn2)cc1", 27]
]}

---

# TEST_PROTOCOL: Example I: plasma letrozole concentration (LC/MS/MS) and non-compartmental pharmacokinetics after single iv dose
# Type: in vivo, cattle
# MEASUREMENT_CONDITIONS: female, bovine, plasma, iv, 125 ug/kg, 125 μg/kg single iv, n=9; read-out: Mean residence time (MRT)

{"columns": ["COMPOUND", "UNIT_SPEC", "MRT"],
 "data": [
  ["N#Cc1ccc(C(c2ccc(C#N)cc2)n2cncn2)cc1", "h", 31.7]
]}

---

# TEST_PROTOCOL: Example I: plasma letrozole concentration (LC/MS/MS) and non-compartmental pharmacokinetics after single iv dose
# Assay type: in vivo, cattle
# MEASUREMENT_CONDITIONS: female, bovine, plasma, intravenous; 250 μg/kg given in a single dose; read-out: mean concentration of letrozole in the circulation at 96 hours
OUTCOME_MEASURE: concentration at 96 hours (ng/mL)

{"columns": ["COMPOUND", "RECORDED_RESULT"],
 "data": [
  ["N#Cc1ccc(C(c2ccc(C#N)cc2)n2cncn2)cc1", 43.7]
]}

---

# TEST_PROTOCOL: Example I: plasma letrozole concentration (LC/MS/MS) and non-compartmental pharmacokinetics after single iv dose
# Format: in vivo, cattle
# MEASUREMENT_CONDITIONS: female, bovine, plasma, iv; doses combined; read-out: Area under the curve (AUClast)

{"columns": ["COMPOUND", "AUC(0-t)"],
 "data": [
  ["N#Cc1ccc(C(c2ccc(C#N)cc2)n2cncn2)cc1 [Letrozole, letrozole]", "18200 ng·h/mL"]
]}

---

# TEST_PROTOCOL: Example I: plasma letrozole concentration (LC/MS/MS) and non-compartmental pharmacokinetics after single iv dose
# Type: in vivo, cattle
# MEASUREMENT_CONDITIONS: female, bovine, plasma, iv, 500 ug/kg, 500 μg/kg single iv, n=9; read-out: Mean residence time (MRT)

{"columns": ["COMPOUND", "UNIT_SPEC", "MRT"],
 "data": [
  ["N#Cc1ccc(C(c2ccc(C#N)cc2)n2cncn2)cc1", "h", 35.8]
]}

---

# TEST_PROTOCOL: Example I: plasma letrozole concentration (LC/MS/MS) and non-compartmental pharmacokinetics after single iv dose
# Assay type: in vivo, cattle
# MEASUREMENT_CONDITIONS: female, bovine, plasma, 250 ug/kg; 250 μg/kg single iv, n=9; read-out: Area under the curve (AUClast)
# Protocol: Heifers in which a CL was detected during the initial examination were given […] cloprostenol (PGF, Estrumate™, Schering-Plough Animal Health, Pointe-Claire, QC, Canada) intramuscularly (im) to induce regression of the CL and to synchronize ovulation. […] For practical purposes, the dose of letrozole was calculated based on an average weight of 400 kg for all heifers. […] Plasma concentrations of letrozole were determined using high performance liquid chromatography tandem mass spectrometry (LC/MS/MS). […]

{"columns": ["COMPOUND", "AUC(0-t) (ng·h/mL)"],
 "data": [
  ["N#Cc1ccc(C(c2ccc(C#N)cc2)n2cncn2)cc1", 17300]
]}
